Entry source: paper PMC6731241

Experiment: Bioconversion in immortalized BV2 microglia homogenate
Type: in vitro ADME, mouse
Settings: mouse, tissue homogenate, pH 7.4; immortalized microglia homogenate, 37 °C, 400 µM; read-out: Half-life of bioconversion
Measured Parameter: half-life at 400 µM (h)
Entry rule: numbers only, all in h.

Summary for this compound, N[C@H](Cc1cccc(C(=O)OCc2ccc(-c3ccc(-c4ccc5c(c4)COC5=O)s3)cc2)c1)C(=O)O [PD1] : half-life at 400 µM is 3.96
